Known cAMP Emax (1.0% HSA) of a selection of binders
- TARGET SYSTEM: T1, human GIP receptor (human, UniProt P48546 22-466)
- T1 sequence (looked up): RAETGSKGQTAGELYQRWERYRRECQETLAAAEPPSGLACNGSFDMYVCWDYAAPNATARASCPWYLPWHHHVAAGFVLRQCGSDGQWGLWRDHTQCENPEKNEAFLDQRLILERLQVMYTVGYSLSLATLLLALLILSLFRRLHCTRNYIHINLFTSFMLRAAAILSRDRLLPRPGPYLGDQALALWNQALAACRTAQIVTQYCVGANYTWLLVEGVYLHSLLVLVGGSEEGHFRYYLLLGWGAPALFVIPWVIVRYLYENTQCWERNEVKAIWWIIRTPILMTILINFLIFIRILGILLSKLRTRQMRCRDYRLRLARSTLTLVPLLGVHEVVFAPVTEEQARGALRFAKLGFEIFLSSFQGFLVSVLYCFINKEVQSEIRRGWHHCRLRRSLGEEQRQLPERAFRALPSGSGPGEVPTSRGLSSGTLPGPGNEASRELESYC
- METHOD NOTES: cell-based or functional assay
*1 amine or outer side, *2 acyl side, *3 side chain or, on linkers, in order; H or OH if unused. Where no end group is shown, it is not given here. Side-chain parts run from the residue outwards. [ ]: non-standard residue; d: D form. The star is where a group is joined. Decanoyl(10-(4-HOOC-PhO)) = O=C(O)c1ccc(OCCCCCCCCCC(=O)*)cc1; αMePhe(2-F) = C[C@](N)(Cc1ccccc1F)C(=O)O; γGlu = O=C(O)[C@H](CCC(=O)[*:2])N[*:1]; αMeY = C[C@](N)(Cc1ccc(O)cc1)C(=O)O; αMeL = CC(C)C[C@](C)(N)C(=O)O; Orn = NCCC[C@H](N)C(=O)O; AEEA = NCCOCCOCC(=O)O; Aib = CC(C)(N)C(=O)O
Return type: number; implicit unit %.

BINDER | QUANTITY | NUMERIC READOUT
YXEGTXTSDYXIXLDXQAQXEFIKXLIKGGPSSGAPPPS (Y-Aib-EGT-αMeF(2F)-TSDY-Aib-I-αMeL-LD-Orn-QAQ-Aib-EFIK((2-[2-(2-Amino-ethoxy)-ethoxy]-acetyl)2-(γ-Glu)-CO-(CH2)12-CO2H)-αMeY-LIK((2-[2-(2-Amino-ethoxy)-ethoxy]-acetyl)2-(γ-Glu)-CO-(CH2)12-CO2H)GGPSSGAPPPS-NH2) [Example 412] | cAMP Emax (1.0% HSA) | 87.5
YXEGTXTSDXXIXLDXIAQXXFIKXLIKGGPSSGAPPPS (Y-Aib-EGT-αMeF(2F)-TSD-4Pal-Aib-I-αMeL-LD-Orn-IAQ-Aib-Orn-FIK((2-[2-(2-Amino-ethoxy)-ethoxy]-acetyl)2-(γ-Glu)-(10-(4-carboxyphenoxy)decanoyl))-αMeY-LIK((2-[2-(2-Amino-ethoxy)-ethoxy]-acetyl)2-(γ-Glu)-(10-(4-carboxyphenoxy)decanoyl))GGPSSGAPPPS-NH2) [Example 354] | cAMP Emax (1.0% HSA) | 67.5
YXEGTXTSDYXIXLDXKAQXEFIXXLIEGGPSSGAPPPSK (Y-Aib-EGT-αMeF(2F)-TSDY-Aib-I-αMeL-LD-Orn-K((2-[2-(2-Amino-ethoxy)-ethoxy]-acetyl)-(γ-Glu)-(10-(4-carboxyphenoxy)decanoyl))AQ-Aib-EFI-(D-Glu)-αMeY-LIEGGPSSGAPPPSK((2-[2-(2-Amino-ethoxy)-ethoxy]-acetyl)-(γ-Glu)-(10-(4-carboxyphenoxy)decanoyl))-NH2) [Example 374] | cAMP Emax (1.0% HSA) | 88.8
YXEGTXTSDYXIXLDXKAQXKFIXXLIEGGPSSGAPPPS (Y-Aib-EGT-αMeF(2F)-TSDY-Aib-I-αMeL-LD-Orn-K((2-[2-(2-Amino-ethoxy)-ethoxy]-acetyl)-(γ-Glu)-(10-(4-carboxyphenoxy)decanoyl))AQ-Aib-K((2-[2-(2-Amino-ethoxy)-ethoxy]-acetyl)-(γ-Glu)-(10-(4-carboxyphenoxy)decanoyl))FI-(D-Glu)-αMeY-LIEGGPSSGAPPPS-NH2) [Example 372] | cAMP Emax (1.0% HSA) | 90.6
Y[Aib]EGT[αMePhe(2-F)]TSDV[Aib]I[αMeL]LD[Orn]K([AEEA-AEEA-Decanoyl(10-(4-HOOC-PhO))])AQ[Aib]EFI[dE][αMeY]LIK([AEEA-AEEA-Decanoyl(10-(4-HOOC-PhO))])GGPSSGAPPPS-NH2 [Example 397] | cAMP Emax (1.0% HSA) | 84.5
YXEGTXTSDYXIXLDXQAQXXFIKXLIKGGPSSGAPPPS (Y-Aib-EGT-αMeF(2F)-TSDY-Aib-I-αMeL-LD-Orn-QAQ-Aib-Orn-FIK((2-[2-(2-Amino-ethoxy)-ethoxy]-acetyl)2-(γ-Glu)--C10_4CP)-αMeY-LIK((2-[2-(2-Amino-ethoxy)-ethoxy]-acetyl)2-(γ-Glu)--C10_4CP)GGPSSGAPPPS-NH2) [Example 492] | cAMP Emax (1.0% HSA) | 88.7
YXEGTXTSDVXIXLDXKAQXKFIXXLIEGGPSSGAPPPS (Y-Aib-EGT-αMeF(2F)-TSDV-Aib-I-αMeL-LD-Orn-K((2-[2-(2-Amino-ethoxy)-ethoxy]-acetyl)2-(10-(4-carboxyphenoxy)decanoyl))AQ-Aib-K((2-[2-(2-Amino-ethoxy)-ethoxy]-acetyl)2-(10-(4-carboxyphenoxy)decanoyl))FI-(D-Glu)-αMeY-LIEGGPSSGAPPPS-NH2) [Example 394] | cAMP Emax (1.0% HSA) | 84.6
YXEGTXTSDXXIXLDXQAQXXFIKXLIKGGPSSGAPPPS (Y-Aib-EGT-αMeF(2F)-TSD-4Pal-Aib-I-αMeL-LD-Orn-QAQ-Aib-Orn-FIK((2-[2-(2-Amino-ethoxy)-ethoxy]-acetyl)-Trx-(γ-Glu)-CO-(CH2)12-CO2H)-αMeY-LIK(((2-[2-(2-Amino-ethoxy)-ethoxy]-acetyl)-Trx-(γ-Glu)-CO-(CH2)12-CO2H)GGPSSGAPPPS-NH2)) [Example 472] | cAMP Emax (1.0% HSA) | 76.3

Kindly consider the entry below.
[in] Dear colleague, I am looking for the recorded cAMP Emax (1.0% HSA) of the following binder: Y[Aib]EGT[αMePhe(2-F)]TSDV[Aib]I[αMeL]LD[Orn]QAQ[Aib]EFIK([AEEA-AEEA-γGlu-Decanoyl(10-(4-HOOC-PhO))])[αMeY]LIK([AEEA-AEEA-γGlu-Decanoyl(10-(4-HOOC-PhO))])GGPSSGAPPPS-NH2 [Example 446]
[out] 97
